target: mGluR5 receptor (Sus scrofa); construct: from tissue; host or cells: pig brain halves without medulla, cerebellum and pons; assay: [3H]-MPEP binding in the mGluR5 receptor binding assay (pig brain homogenate); conditions: Table II; unit inferred
Rule for this label: yes means IC50 is less than 400 nM; no means IC50 is at least 400 nM.

Consider the worked cases shown below.
# compound, assayed_system, group_label
measured = [
    ("CC1CN(c2nccs2)CCN1C(=O)C#Cc1cccc(C#N)c1 (stereo not shown) [AAA00123]", "mGluR5 receptor (Sus scrofa)", "yes"),
    ("CCOC(=O)c1cnc(N2CCN(C(=O)C#Cc3ccccc3)CC2)s1 [Example AAA76]", "mGluR5 receptor (Sus scrofa)", "yes"),
    ("C#Cc1cccc(C#CC(=O)N2CCN(c3nccs3)CC2)c1 [Example AAA00117]", "mGluR5 receptor (Sus scrofa)", "yes"),
]

**Query** Given the entry O=C(C#Cc1ccccc1O)N1CCN(c2nccs2)CC1 [Example AAA4] , would its reported IC50 be below 400 nM?
**Result** no

###

target: mGluR5 receptor (Rattus norvegicus, UniProt P31424); construct: Cortical neurons are prepared from postnatal rats (P2-6) under sterile conditions; endogenous in cells; test: Ca2+ influx in the mGluR5 receptor assay (rat cortical neurons, FlexStation); conditions: Table I; 10 μM DHPG
Sequence (P31424 21-1203): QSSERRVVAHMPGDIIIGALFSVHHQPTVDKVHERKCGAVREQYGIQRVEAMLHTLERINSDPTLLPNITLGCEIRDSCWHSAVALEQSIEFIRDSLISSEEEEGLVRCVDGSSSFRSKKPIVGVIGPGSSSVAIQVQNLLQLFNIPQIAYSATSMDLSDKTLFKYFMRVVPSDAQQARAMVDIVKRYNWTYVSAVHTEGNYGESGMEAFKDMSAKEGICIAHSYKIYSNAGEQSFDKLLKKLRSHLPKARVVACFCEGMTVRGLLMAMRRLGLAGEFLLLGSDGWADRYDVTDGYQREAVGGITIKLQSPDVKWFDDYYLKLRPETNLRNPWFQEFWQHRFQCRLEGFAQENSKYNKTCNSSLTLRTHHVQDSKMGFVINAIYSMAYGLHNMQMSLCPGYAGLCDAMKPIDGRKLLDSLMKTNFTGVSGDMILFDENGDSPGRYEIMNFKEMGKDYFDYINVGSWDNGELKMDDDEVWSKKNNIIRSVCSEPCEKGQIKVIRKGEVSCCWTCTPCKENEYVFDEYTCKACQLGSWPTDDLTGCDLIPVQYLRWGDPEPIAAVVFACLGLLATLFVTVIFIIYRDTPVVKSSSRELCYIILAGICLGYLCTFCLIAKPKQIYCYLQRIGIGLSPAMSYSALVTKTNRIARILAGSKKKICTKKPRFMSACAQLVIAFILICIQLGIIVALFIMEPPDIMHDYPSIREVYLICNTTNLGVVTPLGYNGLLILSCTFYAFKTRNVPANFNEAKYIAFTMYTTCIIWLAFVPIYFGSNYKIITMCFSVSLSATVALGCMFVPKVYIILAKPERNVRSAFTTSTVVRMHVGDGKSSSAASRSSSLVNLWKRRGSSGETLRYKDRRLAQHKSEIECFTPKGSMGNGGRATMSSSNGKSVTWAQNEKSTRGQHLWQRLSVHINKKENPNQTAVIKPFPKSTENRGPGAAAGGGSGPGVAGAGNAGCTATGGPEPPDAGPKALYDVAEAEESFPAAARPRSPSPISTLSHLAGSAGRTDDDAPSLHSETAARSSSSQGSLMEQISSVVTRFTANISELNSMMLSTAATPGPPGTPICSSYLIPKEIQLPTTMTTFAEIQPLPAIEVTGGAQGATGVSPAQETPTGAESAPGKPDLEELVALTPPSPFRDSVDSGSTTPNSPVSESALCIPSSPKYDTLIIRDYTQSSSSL
measurement_name: pIC50
In plain terms, pIC50 is the concentration in mol/L turned into minus its base-10 logarithm.

**Query** Can you look up the measured pIC50 of O=C(C#Cc1ccccc1)N1CCN(c2nccs2)CC1 for me?
**Result** 6.72

###

Some molecules, each annotated with its measured mGluR5-receptor (% inhibition 10 μM) in pigs.
target: mGluR5 receptor (Sus scrofa); construct: from tissue; host or cells: pig brain halves without medulla, cerebellum and pons; assay: [3H]-MPEP binding in the mGluR5 receptor binding assay (pig brain homogenate); details: 10 μM; pig brain homogenate; 5 nM [3H]-MPEP
Provide the reading as a plain figure in %.

Example entries and their recorded answers appear below.
# molecule, reading_unit, observed_measurement
records = [
    ("Cn1ccc2cc(C#CC(=O)N3CCN(c4nccs4)CC3)ccc21 [Example AAA39]", "%", 74),
    ("CC(C)c1cccc(C#CC(=O)N2CCN(c3nccs3)CC2)c1 [Example AAA36]", "%", 40),
    ("C[C@@H]1CN(c2nccs2)C[C@H](C)N1C(=O)C#Cc1ccccc1 [Example AAA75]", "%", 97),
    ("CC1CN(c2nccs2)CCN1C(=O)C#Cc1ccccc1 (centres unmarked) [Example AAA63]", "%", 89),
    ("COc1ccc(C#CC(=O)N2CCN(c3nccs3)CC2)cc1 [Example AAA14]", "%", 34),
]

Proceeding to the next molecule to report its mGluR5-receptor (% inhibition 10 μM) in pigs.
**Query** Can you look up the measured mGluR5-receptor (% inhibition 10 μM) in pigs of CSc1cccc(C#CC(=O)N2CCN(c3nccs3)CC2)c1 [Example AAA40] for me?
**Result** 80

###

Some compounds, each annotated with its measured mGluR5-receptor (% inhibition 10 μM) in pigs.
Target: mGluR5 receptor (Sus scrofa)
Construct: from tissue; host or cells: pig brain halves without medulla, cerebellum and pons
Experiment: [3H]-MPEP binding in the mGluR5 receptor binding assay (pig brain homogenate)
Conditions: 10 μM; pig brain homogenate; 5 nM [3H]-MPEP
Experimental: I. Method the Determination of the Inhibition of the [^3H]-MPEP Binding in the mGluR5 Receptor Binding Assay […] Thereafter, the batches are filtered with the aid of a Brandel cell harvester (Brandel, Robotic 9600 model) onto Unifilter plates with glass fiber filter mats (Perkin Elmer, order no. 6005177) and then rinsed with buffer solution (as above) 3 times with 250 μl per sample each time. […] The non-specific binding is determined by addition of 10 μM of MPEP (Tocris, order no. 1212).
Provide the reading as a plain figure in %.

Example entries and their recorded answers appear below.
# compound, reading_unit, observed_measurement
records = [
    ("O=C(C#Cc1ccco1)N1CCN(c2nccs2)CC1", "%", 74),
    ("Cl.O=C(C#Cc1ccccc1C(F)(F)F)N1CCN(c2nccs2)CC1", "%", 81),
    ("O=C(C#Cc1ccccc1)N1CCN(c2ncc(Cl)s2)CC1", "%", 58),
]

**Query** Can you look up the measured mGluR5-receptor (% inhibition 10 μM) in pigs of O=C(C#Cc1cccc(Cl)c1)N1CCN(c2nccs2)CC1 for me?
**Result** 88

**Query** Can you look up the measured mGluR5-receptor (% inhibition 10 μM) in pigs of O=C(C#Cc1cccc(O)c1)N1CCN(c2nccs2)CC1 for me?
**Result** 83

**Query** Can you look up the measured mGluR5-receptor (% inhibition 10 μM) in pigs of N#Cc1ccccc1C#CC(=O)N1CCN(c2nccs2)CC1 for me?
**Result** 54

**Query** Can you look up the measured mGluR5-receptor (% inhibition 10 μM) in pigs of COc1ccc(Br)c(C#CC(=O)N2CCN(c3nccs3)CC2)c1 for me?
**Result** 30

**Query** Can you look up the measured mGluR5-receptor (% inhibition 10 μM) in pigs of Cc1cccc(C#CC(=O)N2CCN(c3nccs3)CC2C)c1.Cl (centres unmarked) for me?
**Result** 94

**Query** Can you look up the measured mGluR5-receptor (% inhibition 10 μM) in pigs of CC(C)(C)c1nsc(N2CCN(C(=O)C#Cc3cccs3)CC2)n1 for me?
**Result** 33

###

target: mGluR5 receptor (Sus scrofa, UniProt I3LUI7); construct: from tissue; host or cells: pig brain halves without medulla, cerebellum and pons; experiment: [3H]-MPEP binding in the mGluR5 receptor binding assay (pig brain homogenate); settings: Table II; unit inferred
Sequence (I3LUI7 19-1212): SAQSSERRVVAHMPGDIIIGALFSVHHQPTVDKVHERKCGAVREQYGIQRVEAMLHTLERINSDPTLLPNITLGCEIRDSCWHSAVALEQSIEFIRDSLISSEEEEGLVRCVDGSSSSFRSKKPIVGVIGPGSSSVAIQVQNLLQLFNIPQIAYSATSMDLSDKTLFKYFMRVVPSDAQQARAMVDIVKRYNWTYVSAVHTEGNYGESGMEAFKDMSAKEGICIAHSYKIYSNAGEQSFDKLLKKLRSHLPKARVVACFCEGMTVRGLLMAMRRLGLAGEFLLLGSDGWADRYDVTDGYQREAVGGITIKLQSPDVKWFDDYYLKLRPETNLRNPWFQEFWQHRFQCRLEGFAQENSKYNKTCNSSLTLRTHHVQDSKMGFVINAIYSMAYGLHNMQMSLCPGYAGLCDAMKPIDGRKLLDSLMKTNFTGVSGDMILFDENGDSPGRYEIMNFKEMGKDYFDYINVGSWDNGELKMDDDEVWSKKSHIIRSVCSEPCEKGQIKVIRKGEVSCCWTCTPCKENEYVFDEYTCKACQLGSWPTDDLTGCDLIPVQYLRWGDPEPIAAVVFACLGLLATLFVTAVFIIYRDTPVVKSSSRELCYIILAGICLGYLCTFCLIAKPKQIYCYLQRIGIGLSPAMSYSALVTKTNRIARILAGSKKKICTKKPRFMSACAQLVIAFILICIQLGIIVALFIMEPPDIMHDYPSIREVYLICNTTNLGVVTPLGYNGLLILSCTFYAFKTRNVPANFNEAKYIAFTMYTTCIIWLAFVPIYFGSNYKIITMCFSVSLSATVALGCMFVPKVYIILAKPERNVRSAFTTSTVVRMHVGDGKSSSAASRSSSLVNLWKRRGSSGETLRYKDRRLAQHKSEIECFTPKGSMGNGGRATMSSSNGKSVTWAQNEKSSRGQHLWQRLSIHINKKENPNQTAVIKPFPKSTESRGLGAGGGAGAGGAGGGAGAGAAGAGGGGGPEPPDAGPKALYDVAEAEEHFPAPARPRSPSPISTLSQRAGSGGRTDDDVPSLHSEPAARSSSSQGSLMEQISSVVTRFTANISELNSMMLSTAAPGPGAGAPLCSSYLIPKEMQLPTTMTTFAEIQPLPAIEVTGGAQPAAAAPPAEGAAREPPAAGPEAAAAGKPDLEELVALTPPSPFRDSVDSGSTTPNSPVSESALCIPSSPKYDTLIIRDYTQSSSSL
Structures can show the parent of a compound that is named as a salt.
measurement_name: IC50 (nM)
Provide the reading as a plain figure in nM.

Example entries and their recorded answers appear below.
# compound, reading_unit, IC50
data = [
    ("Cc1cccc(C#CC(=O)N2CCN(c3nccs3)CC2C)c1 (stereo not drawn) [Example AAA68]", "nM", 13),
    ("O=C(C#Cc1ccccc1)N1CCN(c2nccs2)CC1 [Example AAA56, hydrochloride]", "nM", 150),
    ("O=C(C#Cc1cccc(C(F)(F)F)c1)N1CCN(c2nccs2)CC1 [Example AAA58, hydrochloride]", "nM", 240),
    ("CCc1cccc(C#CC(=O)N2CCN(c3nccs3)CC2)c1 [Example AAA00120]", "nM", 260),
]

**Query** Can you look up the measured IC50 of O=C(C#Cc1cccs1)N1CCN(c2nccs2)CC1 [Example AAA10] for me?
**Result** 980

**Query** Can you look up the measured IC50 of Cn1ccc2ccc(C#CC(=O)N3CCN(c4nccs4)CC3)cc21 [Example AAA00108] for me?
**Result** 1240

###

molecular target: mGluR5 receptor (Sus scrofa); construct: from tissue; host or cells: pig brain halves without medulla, cerebellum and pons; test: [3H]-MPEP binding in the mGluR5 receptor binding assay (pig brain homogenate); settings: 10 μM; pig brain homogenate; 5 nM [3H]-MPEP
measurement_name: mGluR5-receptor (% inhibition 10 μM) in pigs (%)
Provide the reading as a plain figure in %.

# compound, observed_measurement
measured = [
    ("O=C(C#Cc1ccccc1)N1CCN(c2nc(C(F)(F)F)ns2)CC1", 65),
    ("O=C(C#Cc1cccc(F)c1)N1CCN(c2nccs2)CC1", 86),
]

**Query** Can you look up the measured mGluR5-receptor (% inhibition 10 μM) in pigs of Cc1nc(N2CCN(C(=O)C#Cc3ccccc3)CC2)sc1C for me?
**Result** 86

**Query** Can you look up the measured mGluR5-receptor (% inhibition 10 μM) in pigs of O=C(C#Cc1ccccc1)N1CCN(c2ncc([N+](=O)[O-])s2)CC1 for me?
**Result** 31

**Query** Can you look up the measured mGluR5-receptor (% inhibition 10 μM) in pigs of CN(C)c1cccc(C#CC(=O)N2CCN(c3nccs3)CC2)c1 for me?
**Result** 27

**Query** Can you look up the measured mGluR5-receptor (% inhibition 10 μM) in pigs of CS(=O)(=O)c1nsc(N2CCN(C(=O)C#Cc3ccccc3)CC2)n1 for me?
**Result** 30

**Query** Can you look up the measured mGluR5-receptor (% inhibition 10 μM) in pigs of Nc1cccc(C#CC(=O)N2CCN(c3nccs3)CC2)c1 for me?
**Result** 91

**Query** Can you look up the measured mGluR5-receptor (% inhibition 10 μM) in pigs of CCOC(=O)c1cccc(C#CC(=O)N2CCN(c3nccs3)CC2)c1 for me?
**Result** 40

###

molecular target: mGluR5 receptor (Sus scrofa); construct: from tissue; host or cells: pig brain halves without medulla, cerebellum and pons; experiment: [3H]-MPEP binding in the mGluR5 receptor binding assay (pig brain homogenate); conditions: 10 μM; pig brain homogenate; 5 nM [3H]-MPEP
Definition: the class of an entry is the range in band 1 = under 50%, band 2 = from 50% up to 90%, band 3 = 90% and over that contains its mGluR5-receptor (% inhibition 10 μM) in pigs.

Consider the worked cases shown below.
# compound, group_label
data = [
    ("O=C(C#CC1CCCCC1)N1CCN(c2nccs2)CC1", "band 2"),
    ("N#Cc1cccc(C#CC(=O)N2CCN(c3nccs3)CC2)c1", "band 3"),
    ("COc1nsc(N2CCN(C(=O)C#Cc3ccccc3)CC2)n1", "band 2"),
    ("O=C(C#Cc1ccc(F)cc1)N1CCN(c2nc(-c3ccccc3)ns2)CC1", "band 1"),
    ("COc1cccc(C#CC(=O)N2CCN(c3nccs3)CC2)c1", "band 2"),
]

**Query** Band for the recorded mGluR5-receptor (% inhibition 10 μM) in pigs of Cc1cccc(C#CC(=O)N2CCN(c3nccs3)CC2)c1F ?
**Result** band 1

**Query** Band for the recorded mGluR5-receptor (% inhibition 10 μM) in pigs of O=C(C#Cc1ccc(O)cc1)N1CCN(c2nccs2)CC1 ?
**Result** band 1

**Query** Band for the recorded mGluR5-receptor (% inhibition 10 μM) in pigs of O=C(C#Cc1ccccc1F)N1CCN(c2nc(-c3ccccc3)ns2)CC1 ?
**Result** band 1

**Query** Band for the recorded mGluR5-receptor (% inhibition 10 μM) in pigs of N#Cc1cc(C#CC(=O)N2CCN(c3nccs3)CC2)ccc1F ?
**Result** band 2

**Query** Band for the recorded mGluR5-receptor (% inhibition 10 μM) in pigs of C[C@@H]1CN(c2nccs2)CCN1C(=O)C#Cc1ccccc1 ?
**Result** band 3

**Query** Band for the recorded mGluR5-receptor (% inhibition 10 μM) in pigs of Cc1cnc(N2CCN(C(=O)C#Cc3ccccc3)CC2)s1 ?
**Result** band 3

**Query** Band for the recorded mGluR5-receptor (% inhibition 10 μM) in pigs of O=C(C#Cc1ccccc1)N1CCN(c2nc(C(F)(F)F)cs2)CC1 ?
**Result** band 2

**Query** Band for the recorded mGluR5-receptor (% inhibition 10 μM) in pigs of Cc1noc(-c2cnc(N3CCN(C(=O)C#Cc4ccccc4)CC3)s2)n1 ?
**Result** band 2

**Query** Band for the recorded mGluR5-receptor (% inhibition 10 μM) in pigs of O=C(C#Cc1ccccc1)N1CCN(c2nc(Cc3ccc(F)cc3)ns2)CC1 ?
**Result** band 3

**Query** Band for the recorded mGluR5-receptor (% inhibition 10 μM) in pigs of O=C(C#Cc1ccc(F)cc1)N1CCN(c2nccs2)CC1 ?
**Result** band 2

**Query** Band for the recorded mGluR5-receptor (% inhibition 10 μM) in pigs of Cc1csc(N2CCN(C(=O)C#Cc3ccccc3)CC2)n1 ?
**Result** band 2

**Query** Band for the recorded mGluR5-receptor (% inhibition 10 μM) in pigs of O=C(C#Cc1ccncc1)N1CCN(c2nccs2)CC1 ?
**Result** band 2

**Query** Band for the recorded mGluR5-receptor (% inhibition 10 μM) in pigs of O=C(C#Cc1ccccc1)N1CCN(c2nc(-c3ccccc3)ns2)CC1 ?
**Result** band 1

**Query** Band for the recorded mGluR5-receptor (% inhibition 10 μM) in pigs of Cc1ccc(C#CC(=O)N2CCN(c3nccs3)CC2)cc1.Cl ?
**Result** band 1

**Query** Band for the recorded mGluR5-receptor (% inhibition 10 μM) in pigs of CS(=O)(=O)c1cccc(C#CC(=O)N2CCN(c3nccs3)CC2)c1 ?
**Result** band 1

**Query** Band for the recorded mGluR5-receptor (% inhibition 10 μM) in pigs of COc1ccccc1C#CC(=O)N1CCN(c2nccs2)CC1 ?
**Result** band 1

**Query** Band for the recorded mGluR5-receptor (% inhibition 10 μM) in pigs of Cc1cccc(C#CC(=O)N2CCN(c3nccs3)CC2)c1.Cl ?
**Result** band 3

**Query** Band for the recorded mGluR5-receptor (% inhibition 10 μM) in pigs of Cc1cccc(C#CC(=O)N2CCN(c3nc(C)cs3)CC2)c1 ?
**Result** band 3

**Query** Band for the recorded mGluR5-receptor (% inhibition 10 μM) in pigs of O=C(C#Cc1ccccc1)N1CCN(c2nccs2)CC1c1ccccc1 (centres unmarked) ?
**Result** band 2

**Query** Band for the recorded mGluR5-receptor (% inhibition 10 μM) in pigs of Nc1ccc(C#CC(=O)N2CCN(c3nccs3)CC2)cc1 ?
**Result** band 2

**Query** Band for the recorded mGluR5-receptor (% inhibition 10 μM) in pigs of O=C(C#Cc1ccsc1)N1CCN(c2nccs2)CC1 ?
**Result** band 2
